percent of cells in the upper right quadrant (Q1-UR, CD3+ and anti-human IgG Fc+) reference
Target: T1, human TNFR2 on the cell membrane (human, UniProt P20333 23-461)
T1 construct: whole, on cells; One molecule for all cell formats; also called TNFR2-CHO cells; CHO-TNFR2
T1 sequence (looked up): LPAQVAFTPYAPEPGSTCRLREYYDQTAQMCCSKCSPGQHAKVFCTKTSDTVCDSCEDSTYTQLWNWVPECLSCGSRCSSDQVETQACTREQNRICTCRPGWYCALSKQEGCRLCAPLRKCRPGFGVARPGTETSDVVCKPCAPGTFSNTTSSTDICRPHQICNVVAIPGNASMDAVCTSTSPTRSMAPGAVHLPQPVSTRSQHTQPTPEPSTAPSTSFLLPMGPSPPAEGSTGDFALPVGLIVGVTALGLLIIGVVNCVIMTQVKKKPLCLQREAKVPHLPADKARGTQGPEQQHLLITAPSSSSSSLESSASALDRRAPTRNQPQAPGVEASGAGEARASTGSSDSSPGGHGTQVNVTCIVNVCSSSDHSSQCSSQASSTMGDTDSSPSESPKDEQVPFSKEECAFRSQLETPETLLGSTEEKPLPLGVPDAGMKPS
Assay: flow cytometry on human PBMC, CD3+ T cells
// return numeric value only (unit: %, not printed)

human-mouse chimeric TNFR2 monoclonal antibody 12E12-hFc (antibody, V domains shown, Mouse V regions of clone 12E12 with human constant regions; also called human-mouse chimeric 12E12 antibody) VH: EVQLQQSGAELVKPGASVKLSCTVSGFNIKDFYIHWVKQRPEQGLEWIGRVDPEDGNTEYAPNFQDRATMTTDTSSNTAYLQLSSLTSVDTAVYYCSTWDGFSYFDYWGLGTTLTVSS VL: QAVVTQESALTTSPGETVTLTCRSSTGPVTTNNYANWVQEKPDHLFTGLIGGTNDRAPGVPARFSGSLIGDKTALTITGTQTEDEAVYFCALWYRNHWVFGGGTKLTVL = 45.6
human-mouse chimeric TNFR2 monoclonal antibody 29A1-hFc (antibody, V domains shown, Mouse V regions of clone 29A1 with human constant regions) VH: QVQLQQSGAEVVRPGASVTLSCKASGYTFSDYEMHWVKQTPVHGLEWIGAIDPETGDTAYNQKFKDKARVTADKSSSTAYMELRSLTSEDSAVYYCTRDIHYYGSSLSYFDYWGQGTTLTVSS VL: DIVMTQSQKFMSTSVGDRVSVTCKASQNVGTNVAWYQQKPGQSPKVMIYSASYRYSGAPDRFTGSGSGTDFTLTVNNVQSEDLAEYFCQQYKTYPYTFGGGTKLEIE = 13.6

Exam item: Which percent of cells in the upper right quadrant (Q1-UR, CD3+ and anti-human IgG Fc+) value is on record for human-mouse chimeric TNFR2 monoclonal antibody 27F6-hFc (antibody, V domains shown, Mouse V regions of clone 27F6 with human constant regions) VH: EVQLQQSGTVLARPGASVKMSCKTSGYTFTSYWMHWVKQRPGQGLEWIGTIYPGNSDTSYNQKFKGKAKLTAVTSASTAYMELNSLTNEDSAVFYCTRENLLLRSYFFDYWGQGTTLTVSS VL: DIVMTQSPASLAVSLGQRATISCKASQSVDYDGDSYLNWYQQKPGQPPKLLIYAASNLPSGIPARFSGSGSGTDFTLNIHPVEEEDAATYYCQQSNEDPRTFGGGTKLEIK ?
Marked response: 42.3

Exam item: Okay, and human-mouse chimeric TNFR2 monoclonal antibody 16D2-hFc (antibody, V domains shown, Mouse V regions of clone 16D2 with human constant regions) VH: EVQLQQSEPELVKPGASVKIPCKASGYTFTDYNMDWVKQSHGKSLEWIGDINPNNGVTIYNQKFKGKATLTVDKSSSTAYMELRSLTSEDTAVYYCVILEYFDYWGQGTTLTVSS VL: DIVMTQSTSSMSVSLGDTVSITCHASQGISSNIGWLQQKPGKSFKGLIYHGTKLEDGVPSRFSGSGSGADYSLTISSLESEDFADYYCVQYAQFPRTFGGGTKLEIK ?
Marked response: 9.66
